biological target: hPPARα (LBD) (Homo sapiens); construct: A receptor expression plasmid (pSG5-GAL4-hPPARα or γ or δ (LBD)); GAL4 (fusion partner); test: PPAR activating effect, GAL4-hPPARα LBD luciferase reporter transfection in CV-1 cells; conditions: Table 25; CV-1 cells; method of Example 29; read-out: PPAR activity (EC50) α
Sequence (Q07869 239-466 limits assumed): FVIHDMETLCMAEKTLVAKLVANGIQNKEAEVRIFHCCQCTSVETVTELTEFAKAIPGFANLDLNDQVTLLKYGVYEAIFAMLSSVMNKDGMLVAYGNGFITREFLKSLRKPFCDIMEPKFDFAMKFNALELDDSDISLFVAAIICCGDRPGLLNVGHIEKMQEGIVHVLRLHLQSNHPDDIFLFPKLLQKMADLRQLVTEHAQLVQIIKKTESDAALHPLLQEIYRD
pEC50: −log10 of the molar value.

>  <Test smiles>
Cc1cc2c(CCc3sc4cc(C(F)(F)F)ccc4c3C(C)C)noc2cc1OCC(=O)O

>  <pEC50>
< 5.00

$$$$
>  <Test smiles>
Cc1cc2c(CCc3sc4cc(C(F)(F)F)ccc4c3C(C)C)noc2cc1CCC(=O)O

>  <pEC50>
< 5.00

$$$$

---

Reported activation at 0.1 µM is given for each of the following molecules.
target: hPPARδ (LBD) (Homo sapiens); construct: A receptor expression plasmid (pSG5-GAL4-hPPARα or γ or δ (LBD)); GAL4 (fusion partner); expressed in transfected cells; host or cells: CV-1 cells (ATCC); test: PPAR activating effect, GAL4-hPPARδ LBD luciferase reporter transfection in CV-1 cells; assay type: cell-based; conditions: CV-1, 40 h; read-out: PPAR activity δ (relative value to control compound)
Sequence (Q03181 211-439 limits assumed): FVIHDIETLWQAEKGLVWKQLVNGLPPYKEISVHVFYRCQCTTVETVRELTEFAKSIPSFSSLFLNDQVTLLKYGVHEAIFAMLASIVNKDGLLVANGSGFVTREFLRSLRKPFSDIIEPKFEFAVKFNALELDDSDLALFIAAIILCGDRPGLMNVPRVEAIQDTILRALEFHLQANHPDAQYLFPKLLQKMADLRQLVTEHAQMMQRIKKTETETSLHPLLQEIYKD

>  <Test smiles>
CCCc1c(CCc2noc3cc(OCC(=O)O)c(C)cc23)sc2cc(C(F)(F)F)ccc12

>  <Units symbol>
%

>  <activation at 0.1 µM>
87.4

$$$$
>  <Test smiles>
CCCc1c(CCc2noc3cc(CCC(=O)O)c(C)cc23)sc2cc(C(F)(F)F)ccc12

>  <Units symbol>
%

>  <activation at 0.1 µM>
88.8

$$$$
>  <Test smiles>
CCCc1c(CCc2noc3cc(N(C)CC(=O)O)c(C)cc23)sc2cc(C(F)(F)F)ccc12

>  <Units symbol>
%

>  <activation at 0.1 µM>
77.2

$$$$
>  <Test smiles>
CC(C)c1c(CCc2noc3cc(N(C)CC(=O)O)ccc23)sc2cc(C(F)(F)F)ccc12

>  <Units symbol>
%

>  <activation at 0.1 µM>
81.3

$$$$
>  <Test smiles>
CCCc1c(CCC(=NO)c2cc(C)c(OCC(=O)O)cc2O)sc2cc(C(F)(F)F)ccc12

>  <Units symbol>
%

>  <activation at 0.1 µM>
5.1

$$$$
